Data provenance is patent US20050054006A1.

Recorded EX(nm) for the following molecules
# assay comment: Fluorescence excitation/emission of the styryl dye library compounds
# Format: physicochemical
# experimental setup: EX/EM peak no. 1
Quick reminder: number only, in nm, skip the unit.

The following molecules have reported results that may help.
CCc1ccc(/C=C/c2ccc(N(C)C)c3ccccc23)[n+](C)c1.[I-] [Compound E27] ... 430
Cc1ccnc(-c2cc(C=Cc3ccc(N(C)C)c4ccccc34)cc[n+]2C)c1.[I-] [Compound J27] ... 460
COc1ccc(C=Cc2ccc3ccccc3[n+]2C)cc1OC.[I-] [Compound H11] ... 460
C[n+]1c(C=Cc2cccc(Br)c2)ccc2ccccc21.[I-] [Compound H4] ... 530
C[n+]1c(/C=C/c2c(F)c(F)c(F)c(F)c2F)ccc2ccccc21.[I-] [Compound H31] ... 420

Request: Provide EX(nm) value for the following molecule: CN(C)c1ccc(/C=C/c2cc[n+](C)c3ccccc23)cc1.[I-] [Compound G19]
Response: 500

Request: // fetch EX(nm) given entry Cc1ccnc(-c2cc(C=Cc3ccc4ccc5cccc6ccc3c4c56)cc[n+]2C)c1.[I-] [Compound J41]
Response: 460

Request: Look up and report measured EX(nm) for this entry: Cc1cccc(C=Cc2ccc(O)cc2)[n+]1C.[I-] [Compound L16]
Response: 390

Request: Tell me its EX(nm) given COc1ccc(C=Cc2ccc3ccccc3[n+]2C)cc1O.[I-] [Compound H15] as the entry.
Response: 420

Request: Consider the molecule Cc1ccc(C=Cc2cc[n+](C)c3ccccc23)cc1.[I-] [Compound G8] . State its measured EX(nm).
Response: 440

Request: Input COc1ccc(C=Cc2cccc(C)[n+]2C)cc1.[I-] [Compound L10] , output reported EX(nm).
Response: 420

Request: Recall and state the measured EX(nm) for COc1ccc2c(ccc(C=Cc3ccccc3Br)[n+]2C)c1.[I-] [Compound I3] .
Response: 480

Request: Provide EX(nm) value for the following molecule: COc1ccc2c(ccc(C=Cc3ccc(OC)c(O)c3)[n+]2C)c1.[I-] [Compound I15]
Response: 360

Request: Please give measured EX(nm) of the following entry: COc1cc(OC)c(OC)cc1C=Cc1cc[n+](C)cc1.[I-] [Compound A38]
Response: 410

Request: Give reported EX(nm) value for Oc1ccc(C=Cc2cc[n+](C34CC5CC(CC(C5)C3)C4)cc2)cc1.[Br-] [Compound B16]
Response: 400

Request: Read off the recorded EX(nm) for C[n+]1ccc(C=Cc2ccc3c(c2)OCO3)cc1.[I-] [Compound A39]
Response: 430

Request: For the molecule Cc1cccc(C=C/C=C/c2ccc(N(C)C)cc2)[n+]1C.[I-] [Compound L37] , report EX(nm).
Response: 480

Request: Given the molecule COc1ccc2c(ccc(C=Cc3ccc(Br)cc3)[n+]2C)c1.[I-] [Compound I5] , write its reported EX(nm).
Response: 420

Request: Hello, please tell me recorded EX(nm) for this one: Cc1ccc(/C=C/c2ccc3ccccc3[n+]2C)cc1.[I-] [Compound H8]
Response: 530

Request: Provide EX(nm) value for the following molecule: C[n+]1ccc(C=CC=Cc2ccccc2[N+](=O)[O-])cc1.[I-] [Compound A36]
Response: 430

Request: Identify the reported EX(nm) for the following entry. CN(C)c1ccc(C=Cc2cc[n+](C)cc2)cc1.[I-] [Compound A19]
Response: 460

Request: Read off the recorded EX(nm) for COc1ccc(C=Cc2cccc[n+]2C)c2ccccc12.[I-] [Compound C14]
Response: 390

Request: For the molecule COc1cc(C=Cc2cc[n+](C)c3ccccc23)cc(OC)c1OC.[I-] [Compound G13] , give its measured EX(nm) value.
Response: 420

Request: For the molecule C[n+]1ccc(/C=C/c2ccc3c(c2)OCO3)c2ccccc21.[I-] [Compound G39] , report EX(nm).
Response: 430

Request: Find the measured EX(nm) of CC(=O)Nc1ccc(C=Cc2cc[n+](C)cc2)cc1.[I-] [Compound A18] and report it.
Response: 420
